target: PAR2 (HT-29 cells) (Homo sapiens, UniProt P55085); construct: host or cells: HT-29; experiment: Ca FLIPR TETRA assay, ANTAGONIST mode, activator 8 μM SLIGKV; type: cell-based; details: HT-29 cells, activator 8 μM SLIGKV; maximal antagonist concentration per Method (A: 0.1, 1 or 2 μM; B: 50 μM)
Sequence (P55085 26-397): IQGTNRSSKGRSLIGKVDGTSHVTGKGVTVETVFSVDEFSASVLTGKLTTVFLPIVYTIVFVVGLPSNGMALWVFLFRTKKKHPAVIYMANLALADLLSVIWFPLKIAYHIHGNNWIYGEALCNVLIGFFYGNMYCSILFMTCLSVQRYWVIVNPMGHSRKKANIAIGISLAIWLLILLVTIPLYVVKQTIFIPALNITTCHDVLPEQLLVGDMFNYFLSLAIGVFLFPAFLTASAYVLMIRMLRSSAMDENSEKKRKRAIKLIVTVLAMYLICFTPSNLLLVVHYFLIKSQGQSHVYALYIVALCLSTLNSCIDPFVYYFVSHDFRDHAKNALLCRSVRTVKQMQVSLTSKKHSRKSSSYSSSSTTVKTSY
parameter measured: IC50 (nM)

Worked examples follow.
>  <molecule>
Cc1cn[nH]c1N1CCN(C(=O)c2cc3nc(-c4ccc(F)cc4)cc(C(C)(C)C)c3o2)C(C)(C)C1=O [Example I-247]

>  <target>
PAR2 (HT-29 cells) (Homo sapiens, UniProt P55085)

>  <parameter measured>
IC50

>  <unit annotation>
nM

>  <numeric readout>
12

$$$$
>  <molecule>
CC(C)(C)c1cc(C2CCC(F)(F)CC2)nc2cc(C(=O)N3CCN(C(=O)C4CC(O)(C(F)(F)F)C4)C(=O)C3(C)C)oc12 (centres unmarked) [Example I-224]

>  <target>
PAR2 (HT-29 cells) (Homo sapiens, UniProt P55085)

>  <parameter measured>
IC50

>  <unit annotation>
nM

>  <numeric readout>
2.3

$$$$
>  <molecule>
CC1(c2cc(-c3ccc(F)cc3)nc3cc(C(=O)N4CCN(C(=O)C(O)C5CC5)CC4(C)C)oc23)CC1 (centres unmarked) [Example I-31]

>  <target>
PAR2 (HT-29 cells) (Homo sapiens, UniProt P55085)

>  <parameter measured>
IC50

>  <unit annotation>
nM

>  <numeric readout>
17000

$$$$
>  <molecule>
CC(C)(C)c1cc(-c2ccc(F)cc2)nc2cc(C(=O)N3CCN(C(=O)c4ccccn4)CC3(C)C)oc12 [Example I-185]

>  <target>
PAR2 (HT-29 cells) (Homo sapiens, UniProt P55085)

>  <parameter measured>
IC50

>  <unit annotation>
nM

>  <numeric readout>
1.2

$$$$
>  <molecule>
CC(C)c1cc(-c2ccc(F)cc2)nc2cc(C(=O)N3CCN(C(=O)C4(O)CCOCC4)CC3(C)C)oc12 [Example I-23]

>  <target>
PAR2 (HT-29 cells) (Homo sapiens, UniProt P55085)

>  <parameter measured>
IC50

>  <unit annotation>
nM

>  <numeric readout>
80

$$$$

a: CC(C)(C)c1cc(-c2ccc(C(F)(F)F)cc2)nc2cc(C(=O)N3CCN(C(=O)[C@H]4C[C@@](C)(O)C4)CC3(C)C)oc12 [Example I-158]
b: CC(C)c1cc(-c2ccc(F)cc2)nc2cc(C(=O)N3CCN(C(=O)C(C)(C)O)C[C@@H]3C)oc12 [Example I-106]
c: CC(C)(C)c1cc(-c2ccc(F)cc2)nc2cc(C(=O)N3CCN(C(=O)c4ncccn4)CC3(C)C)oc12 [Example I-184]
d: CC(C)c1cc(-c2ccc(F)cc2)nc2cc(C(=O)N3CCN(C(=O)C4CCOC4)[C@@H](C)C3)oc12 (some centres unmarked) [Example I-80]
e: CC1(c2cc(-c3ccc(F)cc3)nc3cc(C(=O)N4CCN(C(=O)C5CC(O)(C(F)(F)F)C5)CC4(C)C)oc23)CC1 (centres unmarked) [Example I-58]
Ranking field: IC50; order: falling. Write the labels, ordered according to the request.
b, d, c, a, e

a: CC(C)c1cc(-c2ccc(F)cc2)nc2cc(C(=O)N3CCN(C(=O)C4CC4(F)F)CC3(C)C)oc12 (centres unmarked) [Example I-72]
b: CC(Oc1ccccc1)C(=O)N1CCN(C(=O)c2cc3nc(-c4ccc(F)cc4)cc(C(C)C)c3o2)C(C)(C)C1 (centres unmarked) [Example I-67]
Field: lower recorded IC50 (choose a or b ) Please identify the chosen entry by its label.
a

1: CC(C)c1cc(-c2ccc(C(F)(F)F)cc2)nc2cc(C(=O)N3CCNC(=O)C3(C)C)oc12 [Example I-155]
2: COCC(=O)N1CCN(C(=O)c2cc3nc(-c4ccc(F)cc4)cc(C(C)C)c3o2)C(C)(C)C1 [Example I-17]
// compare measured IC50, left 1 , right 2 , return larger Please identify the chosen entry by its label.
2
